The following compounds are shown together with reported growth values.
tested on: U251 CNS; assay: NCI-60 one-dose screen, 48 h (100 = growth as untreated, 0 = no growth, -100 = all killed); settings: 10 µM unless noted
This is part of a sample that, as a whole, favours compounds with a hit. Of some 83,000 tested, about 20% had one in any assay.
Value Kind: growth (%)

>>> measured("C1CCC([PH+](C2CCCCC2)C2CCCCC2[PH+](C2CCCCC2)C2CCCCC2)CC1.[Au].[CH-]1CCCCC1CC1CCCC[N-]1 (centres undefined)")
-78.1
>>> measured("COC(=O)[C@@H](C)C[C@H](Cc1ccccc1)NC(=O)c1nc([C@@H](C[C@H](C(C)C)N(C)C(=O)[C@@H](NC(=O)[C@H]2CC(=O)CCN2C)C(C)C)OC(C)=O)sc1C(C)C")
12.1
>>> measured("COc1ccc(/C=C\\c2cc(OC)c(OC)c(OC)c2)cc1NC(=O)/C=C/c1ccc(OC)c(OC)c1")
35.4
>>> measured("CC[C@H](C)[C@H](NC(=O)NC(C)(C)C)C(=O)N(C)[C@H](C[C@@H](OC(C)=O)c1nc(C(=O)N[C@@H](Cc2ccccc2)C[C@H](C)C(=O)OC)cs1)C(C)C")
11.5

meta.source: PubChem BioAssay (NCI)
